assay: AUC (0 to 24 hrs) in C57 mouse at 50 mg/kg, ip administered as single dose by LC-MS/MS analysis; format: ADME, organism-based; parameters: dose 50 mg/kg, time < 24 hr, route intraperitoneal; settings: in vivo
readout: AUC(0-t) at 24 h (ng·h/mL)
A number alone suffices; assume ng·h/mL.

Q: Quote AUC(0-t) at 24 h reported for `CCOc1ccc(-c2cn(C)nc2-c2cc(OC)c(OC)c(OC)c2)cc1` please.
A: 1140

----------
test: Tmax in C57 mouse at 50 mg/kg, ip administered as single dose by LC-MS/MS analysis; assay type: ADME, organism-based; settings: in vivo
readout: Tmax (min)
A number alone suffices; assume min.

Q: Quote Tmax reported for `CCOc1ccc(-c2cn(C)nc2-c2cc(OC)c(OC)c(OC)c2)cc1` please.
A: 15

----------
assay: Terminal half life in C57 mouse at 50 mg/kg, ip administered as single dose by LC-MS/MS analysis; type: ADME, organism-based; settings: in vivo, read-out: beta t1/2 (converted)
readout: half-life (h)
A number alone suffices; assume h.

Q: Quote half-life reported for `CCOc1ccc(-c2cn(C)nc2-c2cc(OC)c(OC)c(OC)c2)cc1` please.
A: 1.67

----------
system: CT26; assay: Antiproliferative activity against mouse CT26 cells after 72 hrs by CCK8 assay; assay type: functional, cell-based; settings: CT26, 72 h
The molecules listed here are annotated with their IC50.

CCOc1ccc(-c2cn(C)nc2-c2cc(OC)c(OC)c(OC)c2)cc1; 58 nM
COc1ccc(-c2cnn(C)c2-c2cc(OC)c(OC)c(OC)c2)cc1F; 151 nM
COc1ccc(-c2cn(C)nc2-c2cc(OC)c(OC)c(OC)c2)cc1F; 58.7 nM
CCOc1ccc(-c2cnn(C)c2-c2cc(OC)c(OC)c(OC)c2)cc1; 165 nM

Next molecule, IC50 to be filled in.
Q: Check CT26 data and give IC50 for COc1ccc(/C=C\c2cc(OC)c(OC)c(OC)c2)cc1O [COMBRETASTATIN A4] .
A: 45.1 nM

----------
assay: AUC (0 to infinity) in C57 mouse at 50 mg/kg, ip administered as single dose by LC-MS/MS analysis; format: ADME, organism-based; set-up: dose 50 mg/kg, time infinity, route intraperitoneal; settings: in vivo
readout: AUC(0-inf)
The answer should read as a number with its unit following.

Q: Quote AUC(0-inf) reported for `CCOc1ccc(-c2cn(C)nc2-c2cc(OC)c(OC)c(OC)c2)cc1` please.
A: 1170 ng·h/mL
